Measurement description: Thermal analysis (TG/DTA and TGA 7)
Format: physicochemical
Test settings: TGA 7, shallow crucible
Source text: Thermal decomposition paths with evaluation of crystal water content were obtained parallel with two instruments; Perkin Elmer STA 6000 thermogravimetric TG/DTA and Perkin Elmer TGA 7 analyzers (Perkin Elmer, Massachusetts, USA). […] The melting/dehydration/decomposition behavior of the compounds was also visually monitored using a Stuart Scientific SMP3 melting point apparatus.
Readout kind: Onset temperature of first cleavage (°C)

Worked examples, 2 molecules total:
1. NCCCCCCCC(O)(P(=O)(O)O)P(=O)(O)O 197
2. NCCCCC(O)(P(=O)(O)O)P(=O)(O)O 224

(1) NCCCCCCCCCCC(O)(P(=O)(O)O)P(=O)(O)O
(2) NCCCCCCCCCCCC(O)(P(=O)(O)O)P(=O)(O)O
Hi! Which is lower in terms of Onset temperature of first cleavage, the first one 1 or the second one 2 ? Answer by stating the label of the chosen item.
1
(1: 70 °C, 2: 191 °C)
